Where do the numbers come from? From PubChem BioAssay (Tox21).

assay: qHTS assay to identify small molecule HDAC inhibitors (AID 1259364); details: HCT-116 HDAC-Glo I/II luminescence, 2 h; series mostly up to 92.4 µM;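 also: wild-type HCT-116 cells with endogenous class I/II HDAC activity; nearly all actives have a fitted effect of over 45% in size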
Records with an inconclusive call do not appear. Activity calls are given as the source filed them. Calls follow the shape of the dose curve; as a rule, active = well fitted inhibition curve with a large enough effect in the repeat runs; inconclusive = weak or mixed curves; inactive = flat fitted curve, though single readings scatter.
Outcome codes: active, inactive

* O=C1NC(=O)c2cc([N+](=O)[O-])ccc21 | inactive
* CC(=O)OCCN(CCOC(C)=O)c1ccc(N=Nc2ccc([N+](=O)[O-])cc2C#N)cc1 | active
* CN(C)CCN1C(=O)c2ccccc2N(C)c2ccccc21 | inactive
* COC(=O)C1=C(C)NC(C)=C(C(=O)O[C@@H]2CCCN(Cc3ccccc3)C2)[C@@H]1c1cccc([N+](=O)[O-])c1 | inactive
* c1csc(SSc2cccs2)c1 | inactive
* C=CC(=O)OCC1CC2CC1C1CCC(COC(=O)C=C)C21 (configuration not stated) | inactive
* NCCNCCO | inactive

----------
assay: qHTS assay to identify small molecule antagonists of the retinoic acid receptor (RAR) signaling pathway (AID 1159552; also: nearly all actives have a fitted effect of over 50% in size); settings: C3RL4 RARE luciferase reporter, retinol-stimulated, 6 h; series mostly up to 92.4 µM
Records with an inconclusive call do not appear. The source made the active and inactive calls. Calls come from the whole dose curve; as a rule, active = well fitted inhibition curve with a large enough effect in the repeat runs; inconclusive = weak or mixed curves, or effect the other way; inactive = no such curve, though single readings can be large or run the other way.
Outcome codes: active, inactive

- O=C1c2ccccc2C(=O)N1CCc1noc(-c2ccc(CN3CCCCCC3)s2)n1: inactive
- CCc1ccccc1: inactive
- CC1=C(Br)C(=O)C(Br)=C/C1=C(/c1ccccc1S(=O)(=O)O)c1cc(Br)c(O)c(Br)c1C: active

----------
Test: qHTS assay for identifying genotoxic compounds that show differential cytotoxicity against isogenic chicken DT40 cell lines with known DNA damage response pathways - wild type cell line (AID 743012); also: nearly all actives have a fitted effect of over 60% in size
Details: DT40 wild type chicken cells viability, CellTiter-Glo, 40 h; series mostly up to 68.4 µM
Description: U.S. Tox21 Program National Center for Advancing Translational Sciences [NCATS] NIH Chemical Genomics Center [NCGC] U.S. Environmental Protection Agency [EPA] National Institutes of Environmental Health Sciences [NIEHS] National Toxicology Program [NTP] U.S. Food and Drug Administration [FDA] Tox21 Assay Overview: DNA repair pathways play a critical role in cellular homeostasis by repairing DNA damage induced by endogenous processes and xenobiotics. […]
Results filed as inconclusive are left out. Calls of active or inactive are those of the source. Calls come from the whole dose curve; as a rule, active = well fitted cell-killing curve with a large enough effect in the repeat runs; inconclusive = weak or mixed curves, or effect the other way; inactive = no such curve, though single readings can be large or run the other way.
Outcome codes: yes (1) for active, no (0) for inactive

* CCOC(=O)[C@H](CCc1ccccc1)N[C@@H](C)C(=O)N(CC(=O)O)C1Cc2ccccc2C1 | yes (1)
* CCCCCCC(C)(C)C(=O)O | no (0)
* CC1=C(CC=O)C(C)(C)CCC1 | yes (1)
* O=c1[nH]ncc2ccccc12 | no (0)
* CCC(=O)C1CC(C(C)C)CC=C1C (configuration not stated) | no (0)
* COc1ccccc1N1CCN(CC(O)COc2cccc3ccccc23)CC1 (configuration not stated) | yes (1)
* CCCCCCCC/C=C\CCCCCCCCCCCC(=O)O | no (0)
* C=C1CCC2CC1C2(C)C (configuration not stated) | no (0)
* CN(C)CCN1C(=O)c2ccccc2N(C)c2ccccc21 | no (0)
* CC1(C)S[C@@H]2[C@H](NC(=O)C(c3ccccc3)S(=O)(=O)O)C(=O)N2[C@H]1C(=O)O (some centres not stated) | no (0)
* FC(F)(F)c1ccccc1Cl | no (0)
* CC(=O)c1ccc([N+](=O)[O-])cc1 | no (0)
* Oc1ccc(Cl)c2cccnc12 | yes (1)
* O=C(OC(=O)c1ccccc1)c1ccccc1 | no (0)
* CCOC(=O)c1ccc(C#Cc2ccc3c(c2)C(C)(C)CCS3)nc1 | yes (1)
* c1ccc(C[n+]2cccc3ccccc32)cc1 | yes (1)
* O=C(O)CCC(=O)C(=O)O | no (0)
